- Tested on: LOC_OS01G21960-cb002;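 also: purified Escherichia coli-expressed rice kinase domain construct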
- Experiment: thermal shift delta Tm vs DMSO control; higher = stronger stabilization (binding)
- Settings: 12.5 µM; protein concentration 2 µM
Readout type: thermal shift delta Tm (°C)
Give bare numbers, in °C.

{"Molecule": "Cc1cc(Nc2ncnc3ccc(-c4ccc(CNCCS(C)(=O)=O)o4)cc23)ccc1Oc1ccn2ncnc2c1 [HER2-Inhibitor-1]", "Unit of measure": "°C", "Recorded measurement": 1.18}
{"Molecule": "COc1cccc(-n2c(=O)[nH]c3cc(Cl)n(-c4ccc(-c5cccc(OC)c5O)cc4)c3c2=O)c1", "Unit of measure": "°C", "Recorded measurement": 0.8}
{"Molecule": "CC(C)c1cnn2c(NCc3ccccc3)cc(NCCCCCCN)nc12", "Unit of measure": "°C", "Recorded measurement": 0.56}
{"Molecule": "Cc1c(C(=O)Nc2ccc(Oc3ccnc4[nH]cc(-c5ccccc5)c34)c(F)c2)c(=O)n(-c2ccc(F)cc2)n1C", "Unit of measure": "°C", "Recorded measurement": 1.55}

Q: What value of thermal shift delta Tm has been reported for the following molecule? CCCNC(=O)c1cn2ncnc(Nc3cc(C(=O)NC4CC4)ccc3C)c2c1C
Result: -0.06
